test system: Mycobacterium tuberculosis; assay: Antimycobacterial activity against Mycobacterium tuberculosis H37Rv relative to control; type: functional; design: concentration or dose not given beside the values
metric: Inhibition (%)
Write the number in % without appending the unit.

Worked set:
{"mol": "Oc1nc(O)nc(O)n1", "Inhibition, %": 39}
{"mol": "CC(=O)Nc1nc(NC(C)=O)nc(NC(C)=O)n1", "Inhibition, %": 11}
{"mol": "COc1ccc(Nc2nc(Nc3ccc(OC)cc3)nc(Nc3ccc(OC)cc3)n2)cc1", "Inhibition, %": 72}

Inquiry: Sample c1ccc(Nc2nc(Nc3ccccc3)nc(Nc3ccccc3)n2)cc1 — what was its Inhibition?
Reply text: 0

Inquiry: Sample CCN(CC)c1nc(N(CC)CC)nc(N(CC)CC)n1 — what was its Inhibition?
Reply text: 0
